# System: ACHN
# assay-info: NCI tumour cell line growth inhibition, 48 h
Active and inactive are the calls of the source. Rule as the data show it: active = GI50 up to about 1.1 µM and inactive = higher.
Outcomes: yes (1) for active, no (0) for inactive

>  <compound>
CCCCCC/C=C1\CCC(CN(C)C)C1=O (stereo not given)

>  <class-name>
no (0)

$$$$
>  <compound>
CCOC(=O)/C(C#N)=C(/NNc1ccccc1)c1ccncc1C(=O)O

>  <class-name>
no (0)

$$$$
>  <compound>
CN(C)C(=S)/N=c1\ss/c(=N\C(=S)N(C)C)n1-c1cccc(Cl)c1

>  <class-name>
no (0)

$$$$
>  <compound>
CC1OC(OC2C(O[C@H]3CC[C@@]4(C)C(=CC[C@H]5[C@@H]6C[C@@H]7O[C@]8(CC[C@H](C)CN8)[C@@H](C)[C@@H]7[C@@]6(C)CC[C@@H]54)C3)OC(CO)C(O)C2OC2OC(CO)C(O)C(O)C2O)C(O)C(O)C1O (stereo not given in full)

>  <class-name>
no (0)

$$$$
>  <compound>
C=CCNC1=C2C[C@@H](C)C[C@@H](OC)[C@H](OC(=O)CCN(C)C)[C@H](C)/C=C(\C)[C@@H](OC(N)=O)[C@H](OC)/C=C\C=C(/C)C(=O)NC(=CC1=O)C2=O

>  <class-name>
yes (1)

$$$$
>  <compound>
C1CSC(=[N+]2CC[N+](=C3SCCS3)CC2)S1

>  <class-name>
no (0)

$$$$
>  <compound>
COC(=O)C(CCC1(C)OCCO1)=[N+]=[N-]

>  <class-name>
no (0)

$$$$
>  <compound>
c1ccc(/N=C2\SC(=NNc3ccccc3)S\C2=N/c2ccccc2)cc1

>  <class-name>
no (0)

$$$$
>  <compound>
C=C[C@@]1(O)CCCC[C@@H]1CC(Sc1ccccc1)Sc1ccccc1

>  <class-name>
no (0)

$$$$
>  <compound>
Clc1ccc2oc(CCc3ccccc3)nc2c1

>  <class-name>
no (0)

$$$$
>  <compound>
CO[P@@]1(=O)O[C@@H](c2ccccc2)[C@H](O)[C@@]1(O)c1ccccc1

>  <class-name>
no (0)

$$$$
>  <compound>
Cc1ccc(-c2n[nH]c(=O)[nH]2)cc1[N+](=O)[O-]

>  <class-name>
no (0)

$$$$
>  <compound>
CC(CC(=O)Nc1ccc(NC(=O)CC(C)/N=N\C(N)=S)cc1)/N=N\C(N)=S (stereo not given)

>  <class-name>
no (0)

$$$$
>  <compound>
Cn1c(SCc2ccc(F)cc2)nnc1C12CC3CC(CC(C3)C1)C2

>  <class-name>
no (0)

$$$$
>  <compound>
c1ccc(-c2csc3ncn4cnnc4c23)cc1

>  <class-name>
no (0)

$$$$
>  <compound>
Cc1c(C)c2ccc(OC(C)C(=O)O)cc2oc1=O (stereo not given)

>  <class-name>
no (0)

$$$$
>  <compound>
COc1ccccc1C1C(Cl)C(=O)N1NC(=O)Cc1ccccc1 (stereo not given)

>  <class-name>
no (0)

$$$$
>  <compound>
CC(=O)OCC1OC(n2ncc(=O)[nH]c2=O)C(OC(C)=O)C1OC(C)=O (stereo not given)

>  <class-name>
no (0)

$$$$
>  <compound>
CC1CCC2C(C)C(OC(=O)CCC(=O)O)OC3OC4(C)CCC1C32OO4 (stereo not given)

>  <class-name>
no (0)

$$$$
>  <compound>
O=C1C=C(c2c(O)ccc3ccccc23)c2ccccc2C1=O

>  <class-name>
no (0)

$$$$
